- EXPERIMENTAL_SYSTEM: T1, Recombinant human TSLP-his (human, UniProt Q969D9 29-159)
- T1 construct: Prepared in-house; Amine-coupled to CM5 chip in SPR, loaded on APS sensors in Octet, biotin-labeled in the capture ELISA, unlabeled in the cell functional assays; also called human TSLP-his protein
- EXPERIMENT: SPR, Biacore T200; protocol of Example 2
pKd: −log10 of the molar value.
Quick list: pKd per entry.

BINDER	pKd
Chimeric 1C5F12E9 (antibody, human IgG1, kappa, V domains shown, Human IgG1/kappa chimera expressed in 293F cells; also called chimeric 1C5F12E9 antibody) VH: QVQLQQPGTELVKPGASVKMSCKASGYTFTTYWMHWVKQRPGQGLEWIGVIDPSDSDTTYNQKFKGKATLTVDTSSSTAYMQLSSLTSEDSAVYYCTRSLDGYYDYWGQGTTLTVSS VL: DIQMTQSPASLSASVGETVTITCRPTENIYSYLAWYQQKQGKSPHLLVYFARTLAEGVPSRFSGSGSGTQFSLKINSLQPEDFGIYYCQHHYGTPWTFGGGTKLEIKR	9.04
hu1C5F12E9-V1 (antibody, human IgG4 S228P, kappa, V domains shown) VH: QVQLVQSGAEVKKPGASVKVSCKASGYTFTTYWMHWVRQAPGQGLEWIGVIDPSDSDTTYNQKFKGRATLTVDTSSSTAYMELSSLRSEDTAVYYCTRSLDGYYDYWGQGTLVTVSS VL: DIQMTQSPSSLSASVGDRVTITCRPTENIYSYLAWYQQKPGKSPKLLVYFARTLAEGVPSRFSGSGSGTDFTLTISSLQPEDFATYYCQHHYGTPWTFGGGTKVEIKR	> 10.00
hu1C5F12E9-V9 (antibody, human IgG4 S228P, kappa, V domains shown) VH: QVQLVQSGAEVKKPGASVKVSCKASGYTFTTYWMHWVRQAPGQGLEWMGVIDPSDSDTTYNQKFKGRVTMTVDTSTSTVYMELSSLRSEDTAVYYCTRSLDGYYDYWGQGTLVTVSS VL: DIQMTQSPSSLSASVGDRVTITCRPTENIYSYLAWYQQKPGKAPKLLIYFARTLAEGVPSRFSGSGSGTDFTLTISSLQPEDFATYYCQHHYGTPWTFGGGTKVEIKR	> 10.09
hu1C5F12E9-V16 (antibody, human IgG4 S228P, kappa, V domains shown) VH: QVQLVQSGAEVKKPGASVKVSCKASGYTFTTYWMHWVRQAPGQGLEWMGVIDPSDSDTTYNQKFKGRATMTRDTSTSTVYMELSSLRSEDTAVYYCTRSLDGYYDYWGQGTLVTVSS VL: DIQMTQSPSSLSASVGDRVTITCRPTENIYSYLAWYQQKPGKSPKLLIYFARTLAEGVPSRFSGSGSGTDFTLTISSLQPEDFATYYCQHHYGTPWTFGGGTKVEIKR	> 10.02
hu1C5F12E9-V15 (antibody, human IgG4 S228P, kappa, V domains shown) VH: QVQLVQSGAEVKKPGASVKVSCKASGYTFTTYWMHWVRQAPGQGLEWMGVIDPSDSDTTYNQKFKGRVTMTVDTSTSTVYMELSSLRSEDTAVYYCTRSLDGYYDYWGQGTLVTVSS VL: DIQMTQSPSSLSASVGDRVTITCRPTENIYSYLAWYQQKPGKSPKLLIYFARTLAEGVPSRFSGSGSGTDFTLTISSLQPEDFATYYCQHHYGTPWTFGGGTKVEIKR	> 10.05
